Where do the numbers come from? From ChEMBL document CHEMBL4334438.

Kindly supply the reported pIC50 values for the records listed here.
ASSAYED_SYSTEM: Glycogen synthase kinase-3 alpha (Homo sapiens)
Sequence (P49840 whole entry): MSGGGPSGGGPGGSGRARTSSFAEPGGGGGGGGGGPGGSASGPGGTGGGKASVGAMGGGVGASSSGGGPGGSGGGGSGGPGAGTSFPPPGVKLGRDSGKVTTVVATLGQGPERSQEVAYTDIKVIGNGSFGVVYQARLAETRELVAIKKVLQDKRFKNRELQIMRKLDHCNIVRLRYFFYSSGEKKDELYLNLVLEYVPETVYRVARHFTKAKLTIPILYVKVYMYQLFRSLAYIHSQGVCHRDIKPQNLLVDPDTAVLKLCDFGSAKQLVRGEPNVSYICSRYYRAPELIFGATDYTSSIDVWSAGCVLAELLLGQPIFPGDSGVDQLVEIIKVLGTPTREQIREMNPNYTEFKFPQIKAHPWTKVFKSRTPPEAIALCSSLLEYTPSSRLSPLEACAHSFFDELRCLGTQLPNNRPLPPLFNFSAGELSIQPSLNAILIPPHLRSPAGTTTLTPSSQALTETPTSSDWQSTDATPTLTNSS
PROTOCOL_SUMMARY: Inhibition of human GSK-3alpha S449A mutant (2 to end residues) using phospho GS2 peptide as substrate after 40 mins in presence of [gamma-33ATP] by scintillation counting method
Please treat pIC50 as minus the base-10 logarithm of the molar concentration.

Problem: For the compound Cc1ccc(-c2ccc(/C=C3/SC(=N)NC3=O)o2)c([N+](=O)[O-])c1 , what pIC50 is on record?
Result: 6.79

Problem: Thanks! And O=C1NC(=S)N/C1=C/c1ccc(-c2ccc([N+](=O)[O-])cc2)o1 ?
Result: 6.39

Problem: Check CCCOC(=O)c1cc(-c2ccc(/C=C3/NC(=S)NC3=O)o2)ccc1Cl too.
Result: 6.80

Problem: Next compound: O=C1NC(=O)C(c2cnc3ccccn23)=C1c1cn2c3c(cc(F)cc13)CN(C(=O)N1CCCCC1)CC2
Result: 8.99

Problem: Item: N=C1NC(=O)/C(=C\c2ccc(-c3cc([N+](=O)[O-])ccc3Cl)o2)S1
Result: 5.57

Problem: Ok, now N=C1NC(=O)/C(=C\c2ccc(-c3cccc([N+](=O)[O-])c3)o2)S1
Result: 7.31

Problem: Try this compound next: N=C1NC(=O)/C(=C\c2ccc(-c3ccccc3Cl)o2)S1
Result: 6.62

Problem: Input N=C1NC(=O)/C(=C\c2ccc(-c3ccc(Cl)c(Cl)c3)o2)S1
Result: 6.52

Problem: Now the compound Cc1c(-c2ccc(/C=C3/SC(=N)NC3=O)o2)ccc([N+](=O)[O-])c1C
Result: 6.64

Problem: Please do the same for O=C1NC(=S)N/C1=C/c1ccc(-c2ccc(Cl)c(Cl)c2)o1 as well.
Result: 6.43

Problem: Entry to check: O=C1NC(=S)N/C1=C/c1ccc(-c2ccccc2Cl)o1
Result: 6.22

Problem: How about this compound: O=C(N/N=C/c1cccc(Cl)c1)c1cc(-c2ccc3c4c(cccc24)CC3)[nH]n1
Result: 4.95

Problem: Try the compound O=C1NC(=O)N(c2ccc(Br)cc2)C(=O)/C1=C\NCCc1c[nH]c2ccccc12
Result: 5.34

Problem: What would you report for Cc1ccc(-c2ccc(/C=C3/NC(=S)NC3=O)o2)cc1Cl ?
Result: 6.04
